These entries and their values trace back to BindingDB's records for patent US11116760.

# target.desc: Integrin alpha-4/beta-7 (Homo sapiens, UniProt P13612+P26010)
# Sequence (P13612 whole entry): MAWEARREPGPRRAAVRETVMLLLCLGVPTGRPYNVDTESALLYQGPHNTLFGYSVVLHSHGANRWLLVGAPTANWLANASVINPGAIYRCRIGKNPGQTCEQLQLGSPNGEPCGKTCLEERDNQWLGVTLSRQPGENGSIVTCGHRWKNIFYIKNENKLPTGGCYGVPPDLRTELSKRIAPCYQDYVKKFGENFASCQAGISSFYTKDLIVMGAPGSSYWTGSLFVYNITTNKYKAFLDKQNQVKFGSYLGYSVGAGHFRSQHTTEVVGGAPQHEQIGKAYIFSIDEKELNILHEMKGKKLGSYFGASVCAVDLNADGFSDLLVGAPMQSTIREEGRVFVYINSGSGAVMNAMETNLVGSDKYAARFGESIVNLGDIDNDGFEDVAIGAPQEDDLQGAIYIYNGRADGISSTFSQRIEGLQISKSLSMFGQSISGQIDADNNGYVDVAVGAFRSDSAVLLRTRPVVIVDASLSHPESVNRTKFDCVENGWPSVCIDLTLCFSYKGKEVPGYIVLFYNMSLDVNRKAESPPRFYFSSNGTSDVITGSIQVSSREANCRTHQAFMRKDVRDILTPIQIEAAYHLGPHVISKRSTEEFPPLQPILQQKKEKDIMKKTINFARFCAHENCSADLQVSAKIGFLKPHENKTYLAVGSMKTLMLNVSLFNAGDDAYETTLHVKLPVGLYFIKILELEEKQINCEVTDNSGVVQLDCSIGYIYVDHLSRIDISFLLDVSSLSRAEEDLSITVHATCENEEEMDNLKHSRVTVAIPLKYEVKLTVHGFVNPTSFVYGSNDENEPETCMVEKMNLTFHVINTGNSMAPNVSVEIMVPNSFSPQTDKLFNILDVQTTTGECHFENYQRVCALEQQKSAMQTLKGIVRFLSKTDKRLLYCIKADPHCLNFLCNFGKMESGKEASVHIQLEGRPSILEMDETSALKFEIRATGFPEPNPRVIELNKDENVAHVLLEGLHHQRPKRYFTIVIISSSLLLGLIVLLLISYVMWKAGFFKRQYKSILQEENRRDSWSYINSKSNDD
# Sequence (P26010 whole entry): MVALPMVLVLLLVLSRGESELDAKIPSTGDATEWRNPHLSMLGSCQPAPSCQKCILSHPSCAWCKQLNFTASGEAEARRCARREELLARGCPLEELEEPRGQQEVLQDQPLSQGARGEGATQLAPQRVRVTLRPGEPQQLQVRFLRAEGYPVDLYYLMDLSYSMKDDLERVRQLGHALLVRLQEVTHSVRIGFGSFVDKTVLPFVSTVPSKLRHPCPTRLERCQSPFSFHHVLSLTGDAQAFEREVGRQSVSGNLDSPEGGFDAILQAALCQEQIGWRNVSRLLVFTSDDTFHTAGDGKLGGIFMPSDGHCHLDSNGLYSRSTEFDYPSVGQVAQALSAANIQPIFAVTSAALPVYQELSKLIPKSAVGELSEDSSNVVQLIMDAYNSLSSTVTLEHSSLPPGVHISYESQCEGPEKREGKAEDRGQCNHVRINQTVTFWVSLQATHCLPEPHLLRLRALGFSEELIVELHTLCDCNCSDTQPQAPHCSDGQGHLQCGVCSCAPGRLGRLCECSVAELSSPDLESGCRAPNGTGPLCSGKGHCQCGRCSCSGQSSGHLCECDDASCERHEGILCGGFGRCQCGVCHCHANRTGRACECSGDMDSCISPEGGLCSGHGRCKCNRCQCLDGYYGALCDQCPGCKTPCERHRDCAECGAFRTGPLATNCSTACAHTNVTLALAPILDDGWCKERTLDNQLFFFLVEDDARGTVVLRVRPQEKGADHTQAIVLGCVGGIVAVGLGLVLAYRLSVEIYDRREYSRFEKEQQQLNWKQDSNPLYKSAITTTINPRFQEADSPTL
# assay.text: alpha-4 beta-7 Integrin Cell Capture Assay
experimental.readout: pEC50
Quick note: pEC50 means taking -log10 of the concentration in moles per liter.

Please supply the value of reported pEC50 for the item N#Cc1ccc(-c2ccc(C[C@H](NC(=O)c3ccc4[nH]ccc4c3Cl)C(=O)O)c3cccnc23)c(Cl)c1
7.14

Look up and state reported pEC50 for CC(C)[C@H]1COCCN1c1cc(F)c(C(=O)N[C@@H](Cc2ccc(-c3ccc(C#N)cc3Cl)c3ncccc23)C(=O)O)c(F)c1
7.57

Given the molecule N#Cc1ccc(-c2ccc(C[C@H](NC(=O)c3c(F)cc(NC(=O)c4ccccc4)cc3F)C(=O)O)c3cccnc23)c(Cl)c1 , write its reported pEC50.
7.05

Identify measured pEC50 corresponding to Cc1cc2c(=O)n(-c3ccc(C[C@H](NC(=O)c4c(F)cc(N5CCOC[C@@H]5C(F)(F)F)cc4F)C(=O)O)c4cccnc34)c(=O)n(C)c2cn1
9.82

Please look at this molecule and report its pEC50: N#Cc1ccc(-c2ccc(C[C@H](NC(=O)c3c(F)cc(NC4COC4)cc3F)C(=O)O)c3cccnc23)c(Cl)c1
7.54

For the molecule CC[C@@H](Nc1cc(F)c(C(=O)N[C@@H](Cc2cc(F)c(-c3c(OC)cc(C)n(C)c3=O)c3ncccc23)C(=O)O)c(F)c1)C(F)(F)F , give its reported pEC50.
9.10

Complete the entry with pEC50 for C[C@H]1CN(c2cc(F)c(C(=O)N[C@@H](Cc3ccc(-c4ccc(C#N)cc4Cl)c4ncccc34)C(=O)O)c(F)c2)CCO1
7.93

Give pEC50 for Nc1ccc(C(F)(F)F)c(-c2ccc(C[C@H](NC(=O)c3c(Cl)cccc3Cl)C(=O)O)c3cccnc23)n1
8.26

State its pEC50 for this molecule: O=C(N[C@@H](Cc1ccc(-c2ccc(F)c3cccnc23)c2ncccc12)C(=O)O)c1c(F)cccc1F
8.03

Determine from records and report pEC50 for N#Cc1ccc(-c2ccc(C[C@H](NC(=O)c3c(F)cc(N[C@H](C4CCOCC4)C(F)(F)F)cc3F)C(=O)O)c3cccnc23)c(Cl)c1
7.58

Specify pEC50 for Cc1cc(C)nc(-c2ccc(C[C@H](NC(=O)c3c(F)cc(N4CCOC[C@@H]4C(F)(F)F)cc3F)C(=O)O)c3cccnc23)n1 and stop.
8.40

====

# target.desc: Integrin alpha-4/beta-7 (Homo sapiens, UniProt P13612+P26010)
# assay.text: alpha-4 beta-7 Integrin Cell Capture Assay
Kindly supply the reported EC50 values for the records listed here.
Value expressed in nM; do not type the unit.

Retrieve EC50 on Integrin alpha-4/beta-7 (Homo sapiens, UniProt P13612+P26010); query COc1ccn(C)c(=O)c1-c1ccc(C[C@H](NC(=O)c2c(F)cccc2F)C(=O)O)c2cccnc12
8.5

Please respond with reported EC50 (system Integrin alpha-4/beta-7 (Homo sapiens, UniProt P13612+P26010)) for Cc1cnc(-c2ccc(C[C@H](NC(=O)c3c(F)cc(N4CCOC[C@@H]4C(F)(F)F)cc3F)C(=O)O)c3cccnc23)nc1C .
3.2

# return EC50 of Cc1ccc(C(F)(F)F)c(-c2ccc(C[C@H](NC(=O)c3c(Cl)cccc3Cl)C(=O)O)c3cccnc23)n1 (system: Integrin alpha-4/beta-7 (Homo sapiens, UniProt P13612+P26010))
14

Determine reported EC50 for O=C(N[C@@H](Cc1ccc(-c2nccc(C#CC3CC3)c2C(F)(F)F)c2ncccc12)C(=O)O)c1c(Cl)cccc1Cl ; test system: Integrin alpha-4/beta-7 (Homo sapiens, UniProt P13612+P26010).
21

// output EC50; input CC1(Nc2cc(F)c(C(=O)N[C@@H](Cc3ccc(-c4ccc(C#N)cc4Cl)c4ncccc34)C(=O)O)c(F)c2)COC1 ; system Integrin alpha-4/beta-7 (Homo sapiens, UniProt P13612+P26010)
51.7

Report value: EC50, system: Integrin alpha-4/beta-7 (Homo sapiens, UniProt P13612+P26010), compound: CC(O)c1cc(F)c(C(=O)N[C@@H](Cc2ccc(-c3ccc(C#N)cc3Cl)c3ncccc23)C(=O)O)c(F)c1 (stereo partly specified)
60.5
